- TEST TARGET: UniProt P37231
- Sequence (P37231 223-505 limits assumed): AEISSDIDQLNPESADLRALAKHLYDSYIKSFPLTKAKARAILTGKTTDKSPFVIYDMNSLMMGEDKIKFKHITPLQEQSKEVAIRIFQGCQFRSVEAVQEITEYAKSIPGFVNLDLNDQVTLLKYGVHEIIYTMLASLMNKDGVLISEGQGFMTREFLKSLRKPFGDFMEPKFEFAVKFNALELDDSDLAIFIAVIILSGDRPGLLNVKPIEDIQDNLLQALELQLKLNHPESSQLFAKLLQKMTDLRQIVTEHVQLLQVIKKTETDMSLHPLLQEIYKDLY
PARAMETER MEASURED: Ki (nM)

[
  {
    "CPD SMILES": "CC(C)(C)c1ccc(-c2nc(CBr)nn2-c2cccc(O)c2)cc1",
    "ASSAY RESULT": 140
  }
]
